tested on: SK-MEL-28 melanoma; assay: NCI-60 one-dose screen, 48 h (100 = growth as untreated, 0 = no growth, -100 = all killed); details: 10 µM
This is part of a sample that, as a whole, favours compounds with a hit. Of some 83,000 tested, about 20% had one in any assay. Activity calls are given as the source filed them. The calls were made as follows: active = growth percent below 10; inactive = the rest.

>  <compound>
O=[N+]([O-])c1ccc(S(=O)(=O)OCCCCOS(=O)(=O)c2ccc([N+](=O)[O-])cc2)cc1

>  <growth>
99.1% (inactive)

$$$$
>  <compound>
COc1ccc(COC(=O)CC(C)C)cc1

>  <growth>
110% (inactive)

$$$$
>  <compound>
CCOC(=O)CSC(=S)SCC(=O)OCC

>  <growth>
97.7% (inactive)

$$$$
>  <compound>
COc1cc(CSc2nc3ccc(C)cc3c(=O)n2Cc2ccccc2)cc(OC)c1OC

>  <growth>
52% (inactive)

$$$$
>  <compound>
O=NN(CCCl)C(=O)Nc1ccc(NC(=O)N(CCCl)N=O)cc1

>  <growth>
98.8% (inactive)

$$$$
>  <compound>
COc1ccc(C2C=C(c3ccc(Cl)c(Cl)c3)N=C3SC(C)=CN32)cc1 (centres undefined)

>  <growth>
104% (inactive)

$$$$
>  <compound>
CC(C)/C=N/NC(N)=S

>  <growth>
99.2% (inactive)

$$$$
>  <compound>
O=c1oc2cc(OS(=O)(=O)C3CC3)ccc2c2c1CCCCCC2

>  <growth>
93.7% (inactive)

$$$$
>  <compound>
Cc1cc(OI)c(C(C)C)cc1-c1cc(C(C)C)c(OI)cc1C

>  <growth>
103% (inactive)

$$$$
>  <compound>
O=[N+]([O-])c1ccc(-c2nc(Cl)c3c(n2)CCCC3)o1

>  <growth>
98.4% (inactive)

$$$$
>  <compound>
CCCCOCCOCCOCc1cc2c(cc1Br)OCO2

>  <growth>
106% (inactive)

$$$$
>  <compound>
COc1ccc(/C=C(\c2cc(OC)c(OC)c(OC)c2)c2nnc(-c3cccs3)o2)cc1

>  <growth>
69.7% (inactive)

$$$$
>  <compound>
COc1c(-c2c3sc(=O)[nH]c3nc3c2c(=O)[nH]n3C(C)C)cc2c(c1OC)OCO2

>  <growth>
112% (inactive)

$$$$
>  <compound>
COc1cc(Cn2c(-c3ccccc3)cc3c2-c2oncc2CC3)cc(OC)c1

>  <growth>
50.1% (inactive)

$$$$
>  <compound>
CCn1nc(-c2ccc(C(=O)OC)cc2)nc2c(=O)n(C)c(=O)nc1-2

>  <growth>
77.7% (inactive)

$$$$
>  <compound>
O=C(COc1ccc(Cl)cc1Cl)Oc1coc(CSc2nc3ccccc3s2)cc1=O

>  <growth>
131% (inactive)

$$$$
>  <compound>
COc1cc(-c2cc(/C=C/C(C)=O)[nH]n2)cc(OC)c1OC

>  <growth>
97.4% (inactive)

$$$$
>  <compound>
Clc1ccc(-c2nc(-c3cccs3)cn3ccnc23)cc1

>  <growth>
92.5% (inactive)

$$$$
>  <compound>
Cc1nc2ccc(-n3c(-c4ccc(Cl)cc4)nc4ccccc4c3=O)cc2n1Cc1ccccc1

>  <growth>
107% (inactive)

$$$$
>  <compound>
COc1cccc(C(=O)N(c2ccc(F)c(F)c2)C(C(=O)NC(C)(C)C)c2cc3c(C)cc(C)cc3nc2Cl)c1 (centres undefined)

>  <growth>
85.6% (inactive)

$$$$
>  <compound>
CC(C)C[C@H](NC(=O)Cn1ccc(Nc2ccccc2)cc1=O)B(O)O

>  <growth>
10.6% (inactive)

$$$$
>  <compound>
CS(=O)(=O)Nc1ccc([N+](=O)[O-])cc1Oc1ccccc1

>  <growth>
118% (inactive)

$$$$
>  <compound>
CCCCN(CCCC)c1ccc(C(=NC(C)CCCN(CC)CC)c2ccc(N(C)C)cc2)cc1 (centres undefined)

>  <growth>
-72.1% (active)

$$$$
>  <compound>
CCC(O)c1ccc(Br)cc1NC(=O)c1cccc(Cl)c1 (centres undefined)

>  <growth>
29.3% (inactive)

$$$$
>  <compound>
CC1(C)CC(=O)c2c(nc3ccc(Cl)cc3c2-c2ccccc2)C1

>  <growth>
174% (inactive)

$$$$
>  <compound>
CCCCCN(CCCCC)C(C)C(O)c1ccc2cc(Cl)c3ccccc3c2c1 (centres undefined)

>  <growth>
108% (inactive)

$$$$
>  <compound>
Nc1nc(SCC#CCCl)c2[nH]cnc2n1

>  <growth>
72.8% (inactive)

$$$$
>  <compound>
O=C(CCl)N1c2ccccc2Sc2ccc3ccccc3c21

>  <growth>
19.6% (inactive)

$$$$
>  <compound>
Cn1cnc([N+](=O)[O-])c1Sc1nnc(-c2ccccc2)c(-c2ccccc2)n1

>  <growth>
76% (inactive)

$$$$
>  <compound>
CCCCNC(=O)Oc1ccc(/C(=C(\C)c2ccc(OC)cc2)c2ccc(OCCN3CCCCC3)cc2)cc1

>  <growth>
2.55% (active)

$$$$
>  <compound>
O=C(CCc1ccccc1)N1CCN(C(=O)CCc2ccccc2)CC1

>  <growth>
108% (inactive)

$$$$
>  <compound>
Cc1cc(C)c2c(Nc3ncnc4c3sc3nc(C)cc(C)c34)n[nH]c2n1

>  <growth>
94.5% (inactive)

$$$$
>  <compound>
Cc1cccc2c(Nc3ccc(NS(C)(=O)=O)cc3)c3ccc([N+](=O)[O-])cc3nc12

>  <growth>
-5.65% (active)

$$$$
>  <compound>
N#Cc1c2c([nH]c(=O)c1C(N)=O)CCCCC2

>  <growth>
106% (inactive)

$$$$
>  <compound>
Cc1ccc([P+](Cc2ccccc2)(c2ccccc2)c2ccccc2)cc1

>  <growth>
24.4% (inactive)

$$$$
>  <compound>
O=C(N/N=C\c1cc(Cl)ccc1O)c1ccncc1

>  <growth>
64.5% (inactive)

$$$$
>  <compound>
COc1cc(-c2nc(-c3nnc(-c4cccnc4)o3)c3ccccn23)cc(OC)c1OC

>  <growth>
121% (inactive)

$$$$
>  <compound>
CCCc1c(C)nc2scc(-c3ccc(Cl)cc3)n2c1=O

>  <growth>
112% (inactive)

$$$$
>  <compound>
COc1cc(-c2cc(-c3ccc(C)cc3)nc3nc(N)[nH]c(=O)c23)ccc1Oc1ccnc2cc(Cl)ccc12

>  <growth>
88.3% (inactive)

$$$$
>  <compound>
CC1(C)CNC(=O)N1

>  <growth>
114% (inactive)

$$$$
>  <compound>
COc1ccc(/C(CS(=O)(=O)c2ccccc2)=N\O)cc1

>  <growth>
100% (inactive)

$$$$
>  <compound>
CCOc1nc(-c2ccccc2)cc2c(O)c(C(=O)NC(C)C)[nH]c(=O)c12

>  <growth>
89.7% (inactive)

$$$$
>  <compound>
COc1cccc(C2(C)Nc3ccccc3-c3nc4ccccc4n32)c1 (centres undefined)

>  <growth>
107% (inactive)

$$$$
>  <compound>
CN(C)c1ccc2c(c1)OC(N)=C(C#N)C2c1ccc2c(c1)CCCN2C (centres undefined)

>  <growth>
61.5% (inactive)

$$$$
